Assay: in vitro
Settings: mouse, plasma

>  <chem smiles>
Cc1c(F)c(N)cc(C(=O)Nc2cc(-n3cc(C(=O)N4CCN(C)CC4)nn3)c(F)cc2N2C[C@@H](C)N(C)[C@@H](C)C2)c1Cl

>  <fraction unbound>
< 0.07

$$$$

###

Test: PK profile of HBI-2375 in plasma, brain and CSF in SD rats
Type: in vivo
Conditions: rat; SD rats, single PO 40 mg/kg, plasma, female; read-out: Tmax

>  <chem smiles>
Cc1c(F)c(N)cc(C(=O)Nc2cc(-n3cc(C(=O)N4CCN(C)CC4)nn3)c(F)cc2N2C[C@@H](C)N(C)[C@@H](C)C2)c1Cl

>  <Tmax / min>
15

$$$$

###

Assay: PK profile of HBI-2375 in plasma and brain in C57BL/6J mice
Type: in vivo
Conditions: mouse; C57BL/6J mice, 7-day repeat PO 80 mg/kg, brain, male

>  <chem smiles>
Cc1c(F)c(N)cc(C(=O)Nc2cc(-n3cc(C(=O)N4CCN(C)CC4)nn3)c(F)cc2N2C[C@@H](C)N(C)[C@@H](C)C2)c1Cl

>  <Cmax at 7 day [ng/g]>
722

$$$$

###

Experiment: PK profile of HBI-2375 in plasma and brain in C57BL/6J mice
Format: in vivo
Details: mouse; C57BL/6J mice, single PO 80 mg/kg, brain, male
Protocol: EXAMPLE 4: PK profile of compound of Formula (IIIb) (HBI-2375, HYBI-84) in plasma and brain in C57BL/6J mice: This study was conducted in accordance with the Study Protocol and Pharmaron (Ningbo) TSP's Standard Operating Procedures (SOPs) following all regulatory protocols. This study was conducted under non-GLP environment. […]

>  <compound>
Cc1c(F)c(N)cc(C(=O)Nc2cc(-n3cc(C(=O)N4CCN(C)CC4)nn3)c(F)cc2N2C[C@@H](C)N(C)[C@@H](C)C2)c1Cl [HYBI-084]

>  <MRT last, h>
8.4

$$$$

###

Molecular target: HDAC3 (Homo sapiens, UniProt O15379)
Sequence (O15379 whole entry, species assumed): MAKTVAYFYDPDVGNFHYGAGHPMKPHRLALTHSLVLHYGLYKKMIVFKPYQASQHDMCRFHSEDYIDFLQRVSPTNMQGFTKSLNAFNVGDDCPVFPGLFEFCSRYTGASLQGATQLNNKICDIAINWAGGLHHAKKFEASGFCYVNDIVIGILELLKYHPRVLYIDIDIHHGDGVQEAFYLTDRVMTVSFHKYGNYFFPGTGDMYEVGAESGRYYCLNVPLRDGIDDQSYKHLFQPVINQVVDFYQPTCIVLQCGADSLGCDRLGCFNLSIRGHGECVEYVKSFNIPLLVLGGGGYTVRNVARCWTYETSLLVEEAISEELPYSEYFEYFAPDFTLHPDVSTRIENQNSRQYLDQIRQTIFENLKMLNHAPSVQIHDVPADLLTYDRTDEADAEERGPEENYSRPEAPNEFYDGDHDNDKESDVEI
Sequence (Q9Y618 395-489 partner limits assumed, species assumed): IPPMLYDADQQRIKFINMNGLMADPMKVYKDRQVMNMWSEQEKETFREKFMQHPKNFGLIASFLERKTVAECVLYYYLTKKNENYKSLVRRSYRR
pIC50: −log10 of the molar value.

>  <chem smiles>
Cc1c(F)c(N)cc(C(=O)Nc2cc(-n3cc(C(=O)N4CCN(C)CC4)nn3)c(F)cc2N2C[C@@H](C)N(C)[C@@H](C)C2)c1Cl

>  <pIC50>
< 6.00

$$$$

###

Assay: Mouse PK (oral)
Format: in vivo, C57/B16 mice
Details: C57/B16, plasma, 10 mg/kg, 10 mpk
observation type: half-life (h)

>  <chem smiles>
CCN(CC)C(=O)c1cn(-c2cc(NC(=O)c3cc(N)c(F)c(C)c3Cl)c(N3C[C@@H](C)N(C)[C@@H](C)C3)cc2F)nn1

>  <value observed>
0.8

$$$$
>  <chem smiles>
Cc1c(F)c(N)cc(C(=O)Nc2cc(-n3cc(C(=O)N4CCN(C)CC4)nn3)c(F)cc2N2C[C@@H](C)N(C)[C@@H](C)C2)c1Cl

>  <value observed>
3.1

$$$$
>  <chem smiles>
C[C@H]1CN(c2cc(F)c(-c3cnc(N4CCOCC4)nc3)cc2Nc2ncnc(Cl)c2N)CCN1C

>  <value observed>
3.3

$$$$
>  <chem smiles>
C[C@@H]1CN(c2ncc(-c3cc(Nc4ncnc(Cl)c4N)c(N4CCN(C)[C@@H](C)C4)cc3F)cn2)C[C@H](C)O1

>  <value observed>
11.1

$$$$

###

Molecular target: CD39 (Homo sapiens)
Sequence (P49961 whole entry, species assumed): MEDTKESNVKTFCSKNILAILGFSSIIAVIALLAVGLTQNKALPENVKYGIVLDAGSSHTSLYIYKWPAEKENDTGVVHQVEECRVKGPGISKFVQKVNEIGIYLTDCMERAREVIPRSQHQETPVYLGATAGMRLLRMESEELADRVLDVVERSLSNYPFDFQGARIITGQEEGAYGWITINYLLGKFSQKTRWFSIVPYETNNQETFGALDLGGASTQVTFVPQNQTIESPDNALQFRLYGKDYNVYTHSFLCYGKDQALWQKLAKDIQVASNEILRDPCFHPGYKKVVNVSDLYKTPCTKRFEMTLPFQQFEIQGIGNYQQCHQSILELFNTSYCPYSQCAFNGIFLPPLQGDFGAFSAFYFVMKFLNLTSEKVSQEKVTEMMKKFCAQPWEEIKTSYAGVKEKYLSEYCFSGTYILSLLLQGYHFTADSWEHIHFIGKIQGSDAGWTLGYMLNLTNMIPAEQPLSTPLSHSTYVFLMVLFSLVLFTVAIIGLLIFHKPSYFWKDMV
pIC50: −log10 of the molar value.

>  <chem smiles>
Cc1c(F)c(N)cc(C(=O)Nc2cc(-n3cc(C(=O)N4CCN(C)CC4)nn3)c(F)cc2N2C[C@@H](C)N(C)[C@@H](C)C2)c1Cl

>  <pIC50>
< 6.00

$$$$

###

Assay: PK profile of HBI-2375 in plasma and brain in C57BL/6J mice
Format: in vivo
Details: C57BL/6J, mouse, brain, po, 80 mg/kg, Repeat PO Mouse at 80 mg/kg; read-out: Mean Brain Concentration, Cmin = 24 h

>  <chem smiles>
Cc1c(F)c(N)cc(C(=O)Nc2cc(-n3cc(C(=O)N4CCN(C)CC4)nn3)c(F)cc2N2C[C@@H](C)N(C)[C@@H](C)C2)c1Cl

>  <unit name>
ng/g

>  <concentration at 24 h>
136

$$$$

###

Assay: Dog PK (oral)
Format: in vivo, Beagle dogs
Conditions: Beagle, plasma, 1.5 mg/kg, 1.5 mpk

>  <compound>
C[C@@H]1CN(c2ncc(-c3cc(Nc4ncnc(Cl)c4N)c(N4CCN(C)[C@@H](C)C4)cc3F)cn2)C[C@H](C)O1 [DDO-2213_023]

>  <half-life (h)>
63.6

$$$$
>  <compound>
Cc1c(F)c(N)cc(C(=O)Nc2cc(-n3cc(C(=O)N4CCN(C)CC4)nn3)c(F)cc2N2C[C@@H](C)N(C)[C@@H](C)C2)c1Cl [HYBI-084]

>  <half-life (h)>
7.5

$$$$

###

Molecular target: KRAS G12C (Homo sapiens, UniProt P01116, G12C)
Sequence (P01116 1-188 isoform P01116-2 G12C): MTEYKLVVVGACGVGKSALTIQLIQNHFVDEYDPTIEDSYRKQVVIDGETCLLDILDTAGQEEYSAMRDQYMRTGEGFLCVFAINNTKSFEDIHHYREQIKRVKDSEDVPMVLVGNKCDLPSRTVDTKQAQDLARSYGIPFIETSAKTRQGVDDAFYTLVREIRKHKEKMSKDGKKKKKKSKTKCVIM
Assay: Selectivity panel (Table 3)

>  <molecule>
Cc1c(F)c(N)cc(C(=O)Nc2cc(-n3cc(C(=O)N4CCN(C)CC4)nn3)c(F)cc2N2C[C@@H](C)N(C)[C@@H](C)C2)c1Cl [HYBI-084]

>  <IC50>
> 1000 nM

$$$$

###

In this section we review reported Remaining % (Day 1) values for a set of compounds.
Test: Compound formulation stability assay
Format: physicochemical
Details: 10 mg/mL in 10% DMSO/10% solutol HS 15/80% water, 2-8° C., Day 1

>  <compound>
Cc1c(F)c(N)cc(C(=O)Nc2cc(-n3cc(C(=O)N4CCN(C)CC4)nn3)c(F)cc2N2C[C@@H](C)N(C)[C@@H](C)C2)c1Cl [HYBI-084]

>  <Remaining % (Day 1)>
101%

$$$$
>  <compound>
C[C@H]1CN(c2cc(F)c(-c3cnc(N4CCOCC4)nc3)cc2Nc2ncnc(Cl)c2N)CCN1C [DDO-2213_020]

>  <Remaining % (Day 1)>
102%

$$$$
>  <compound>
CCN(CC)C(=O)c1cn(-c2cc(NC(=O)c3cc(N)c(F)c(C)c3Cl)c(N3C[C@@H](C)N(C)[C@@H](C)C3)cc2F)nn1 [HYBI-082]

>  <Remaining % (Day 1)>
100%

$$$$
>  <compound>
C[C@@H]1CN(c2ncc(-c3cc(Nc4ncnc(Cl)c4N)c(N4CCN(C)[C@@H](C)C4)cc3F)cn2)C[C@H](C)O1 [DDO-2213_023]

>  <Remaining % (Day 1)>
90.4%

$$$$

###

Examples of molecules with documented Accuracy % (Day 1) follow.
Experiment: Compound formulation stability assay
Assay type: physicochemical
Conditions: 10 mg/mL in 10% DMSO/10% solutol HS 15/80% water, 2-8° C., Day 1

>  <molecule>
C[C@H]1CN(c2cc(F)c(-c3cnc(N4CCOCC4)nc3)cc2Nc2ncnc(Cl)c2N)CCN1C [DDO-2213_020]

>  <Accuracy % (Day 1) [%]>
91.6

$$$$
>  <molecule>
Cc1c(F)c(N)cc(C(=O)Nc2cc(-n3cc(C(=O)N4CCN(C)CC4)nn3)c(F)cc2N2C[C@@H](C)N(C)[C@@H](C)C2)c1Cl [HYBI-084]

>  <Accuracy % (Day 1) [%]>
93.4

$$$$
>  <molecule>
CCN(CC)C(=O)c1cn(-c2cc(NC(=O)c3cc(N)c(F)c(C)c3Cl)c(N3C[C@@H](C)N(C)[C@@H](C)C3)cc2F)nn1 [HYBI-082]

>  <Accuracy % (Day 1) [%]>
96.0

$$$$
>  <molecule>
C[C@@H]1CN(c2ncc(-c3cc(Nc4ncnc(Cl)c4N)c(N4CCN(C)[C@@H](C)C4)cc3F)cn2)C[C@H](C)O1 [DDO-2213_023]

>  <Accuracy % (Day 1) [%]>
81.3

$$$$

###

Biological target: PD-1/PD-L1 (Homo sapiens, UniProt Q9NZQ7)
Sequence (Q9NZQ7 19-238 limits assumed): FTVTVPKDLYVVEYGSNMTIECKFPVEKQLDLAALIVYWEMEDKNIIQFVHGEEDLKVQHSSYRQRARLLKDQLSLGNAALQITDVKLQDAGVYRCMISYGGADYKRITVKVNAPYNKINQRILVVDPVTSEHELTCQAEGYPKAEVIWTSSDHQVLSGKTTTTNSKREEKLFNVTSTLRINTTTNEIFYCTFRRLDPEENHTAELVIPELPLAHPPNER
Experiment: Selectivity panel (Table 3)
pIC50: −log10 of the molar value.

>  <compound>
Cc1c(F)c(N)cc(C(=O)Nc2cc(-n3cc(C(=O)N4CCN(C)CC4)nn3)c(F)cc2N2C[C@@H](C)N(C)[C@@H](C)C2)c1Cl [HYBI-084]

>  <pIC50>
< 6.00

$$$$

###

Experiment: PK profile of HBI-2375 in plasma and brain in C57BL/6J mice
Format: in vivo
Conditions: both sexes, mouse; C57BL/6J mice, 7-day repeat PO 80 mg/kg, brain

>  <chem smiles>
Cc1c(F)c(N)cc(C(=O)Nc2cc(-n3cc(C(=O)N4CCN(C)CC4)nn3)c(F)cc2N2C[C@@H](C)N(C)[C@@H](C)C2)c1Cl

>  <Tmax at 7 day>
4 h

$$$$

###

Assay: WBS (whole blood stability) assay
Format: in vitro ADME
Conditions: Human whole blood
observation type: half-life at 2 μM (h)

>  <chem smiles>
C[C@@H]1CN(c2ncc(-c3cc(Nc4ncnc(Cl)c4N)c(N4CCN(C)[C@@H](C)C4)cc3F)cn2)C[C@H](C)O1

>  <observation type>
half-life at 2 μM

>  <unit name>
h

>  <value observed>
8.75

$$$$
>  <chem smiles>
CCN(CC)C(=O)c1cn(-c2cc(NC(=O)c3cc(N)c(F)c(C)c3Cl)c(N3C[C@@H](C)N(C)[C@@H](C)C3)cc2F)nn1

>  <observation type>
half-life at 2 μM

>  <unit name>
h

>  <value observed>
11.9

$$$$
>  <chem smiles>
C[C@H]1CN(c2cc(F)c(-c3cnc(N4CCOCC4)nc3)cc2Nc2ncnc(Cl)c2N)CCN1C

>  <observation type>
half-life at 2 μM

>  <unit name>
h

>  <value observed>
5

$$$$
>  <chem smiles>
Cc1c(F)c(N)cc(C(=O)Nc2cc(-n3cc(C(=O)N4CCN(C)CC4)nn3)c(F)cc2N2C[C@@H](C)N(C)[C@@H](C)C2)c1Cl

>  <observation type>
half-life at 2 μM

>  <unit name>
h

>  <value observed>
10.3

$$$$
